Molecular target: GABAA R (α5β2γ2) (Homo sapiens, UniProt P18507+P31644)
Construct: expressed in transfected cells
Sequence (P47870 25-512 partner limits assumed, one chain of several): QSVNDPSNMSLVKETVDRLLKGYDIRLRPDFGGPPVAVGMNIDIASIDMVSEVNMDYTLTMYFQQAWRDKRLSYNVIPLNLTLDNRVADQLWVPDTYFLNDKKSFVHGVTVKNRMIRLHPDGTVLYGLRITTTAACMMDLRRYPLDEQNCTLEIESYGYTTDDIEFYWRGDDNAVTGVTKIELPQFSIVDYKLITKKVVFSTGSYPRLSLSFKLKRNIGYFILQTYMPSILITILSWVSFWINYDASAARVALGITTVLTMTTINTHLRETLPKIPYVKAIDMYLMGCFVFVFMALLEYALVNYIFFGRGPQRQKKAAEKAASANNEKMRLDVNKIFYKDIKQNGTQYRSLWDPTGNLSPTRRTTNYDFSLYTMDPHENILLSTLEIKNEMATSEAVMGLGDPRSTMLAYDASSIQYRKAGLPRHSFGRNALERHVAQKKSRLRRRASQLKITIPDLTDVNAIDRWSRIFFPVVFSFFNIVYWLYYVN
Assay: Positive allosteric modulator activity: potentiation of EC20 GABA current in oocytes
Assay type: cell-based
Details: read-out: GABA α5 Functional Data: potentiation, @ 100 nM, EC20 GABA; ranges of the column heads
Consider the following molecules and their measured activation at 0.1 µM readings.

Recorded activation at 0.1 µM, per entry:
* CC(C)c1noc(-c2ncn3c2Cc2cn(CC4CCCO4)nc2-c2cc(Cl)ccc2-3)n1 (stereo not shown) [Compound 193] | 20 to 50%
* COCc1noc(-c2ncn3c2Cc2cn(CCOC(F)(F)F)nc2-c2cc(OC)ccc2-3)n1 [Compound 315] | 20 to 50%
* Cn1cc2c(n1)-c1cc(Cl)ccc1-n1cnc(-c3nc(CN4CCOCC4)co3)c1C2 [Compound 276] | 20 to 50%
* COc1ccc2c(c1)-c1c(cnn1CC1CCCO1)Cc1c(-c3nc(C(C)C)no3)ncn1-2 (stereo not shown) [Compound 244] | 5 to 20%
* COc1ccc2c(c1)-c1[nH]ncc1Cc1c(C3=N[C@H](c4ccccc4)CO3)ncn1-2 [Compound 14] | 5 to 20%
* COc1ccc2c(c1)-c1nn(CC3CCCO3)cc1Cc1c(-c3nnc(COCC(F)(F)F)o3)ncn1-2 (stereo not shown) [Compound 303] | 20 to 50%
* Clc1ccc2c(c1)-c1nn(CC3CCCO3)cc1Cc1c(-c3noc(C4COCCO4)n3)ncn1-2 (stereo not shown) [Compound 305] | 5 to 20%
* CC(C)c1noc(-c2ncn3c2Cc2cn(CCN(C)C)nc2-c2cc(Cl)ccc2-3)n1 [Compound 112] | 5 to 20%

Reported activation at 0.1 µM, molecule CC(C)c1noc(-c2ncn3c2Cc2cn(C(C)C)nc2-c2cc(Cl)ccc2-3)n1 [Compound 138] : ____ 20 to 50%

Also COc1ccc2c(c1)-c1nn(C)cc1Cc1c(-c3noc(C4(F)CC4)n3)ncn1-2 [Compound 205] ? 20 to 50%

Also Cn1cc2c(n1)-c1cc(Cl)ccc1-n1cnc(-c3nc([C@H]4CCOC4)no3)c1C2 [Compound 253] ? 5 to 20%

Also COCCn1cc2c(n1)-c1cc(Cl)ccc1-n1cnc(-c3nc(C4CC4)no3)c1C2 [Compound 128] ? 5 to 20%

Also Clc1ccc2c(c1)-c1nn(CC3CCCO3)cc1Cc1c(-c3cnn(Cc4ccccc4)c3)ncn1-2 (stereo not shown) [Compound 230] ? 5 to 20%

###

Target: α5β3γ2 GABAA R (Homo sapiens, UniProt P18507+P31644)
Sequence (P31644 32-462): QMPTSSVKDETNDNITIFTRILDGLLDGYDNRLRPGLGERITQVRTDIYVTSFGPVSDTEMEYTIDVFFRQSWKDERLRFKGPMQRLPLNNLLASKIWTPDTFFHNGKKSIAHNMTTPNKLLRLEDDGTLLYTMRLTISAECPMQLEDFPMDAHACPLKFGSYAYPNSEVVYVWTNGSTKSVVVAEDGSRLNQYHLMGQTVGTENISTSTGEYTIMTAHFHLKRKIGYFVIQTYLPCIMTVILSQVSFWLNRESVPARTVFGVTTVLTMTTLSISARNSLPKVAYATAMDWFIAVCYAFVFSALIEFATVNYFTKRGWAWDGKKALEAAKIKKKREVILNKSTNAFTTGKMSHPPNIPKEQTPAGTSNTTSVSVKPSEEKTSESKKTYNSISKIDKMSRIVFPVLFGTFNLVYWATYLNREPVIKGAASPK
Sequence (P28472 26-473 partner): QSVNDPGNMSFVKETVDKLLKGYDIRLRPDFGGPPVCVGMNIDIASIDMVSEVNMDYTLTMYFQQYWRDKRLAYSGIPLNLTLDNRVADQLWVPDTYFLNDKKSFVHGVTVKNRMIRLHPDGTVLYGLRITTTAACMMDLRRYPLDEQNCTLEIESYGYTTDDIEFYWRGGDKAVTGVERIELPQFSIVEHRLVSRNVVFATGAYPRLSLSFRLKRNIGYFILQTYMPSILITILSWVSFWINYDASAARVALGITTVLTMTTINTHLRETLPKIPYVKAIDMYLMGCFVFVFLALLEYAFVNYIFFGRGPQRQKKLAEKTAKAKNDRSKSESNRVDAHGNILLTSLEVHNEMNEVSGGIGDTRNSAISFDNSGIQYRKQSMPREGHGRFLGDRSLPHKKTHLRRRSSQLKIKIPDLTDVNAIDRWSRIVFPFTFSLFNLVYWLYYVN
Sequence (P18507 40-475): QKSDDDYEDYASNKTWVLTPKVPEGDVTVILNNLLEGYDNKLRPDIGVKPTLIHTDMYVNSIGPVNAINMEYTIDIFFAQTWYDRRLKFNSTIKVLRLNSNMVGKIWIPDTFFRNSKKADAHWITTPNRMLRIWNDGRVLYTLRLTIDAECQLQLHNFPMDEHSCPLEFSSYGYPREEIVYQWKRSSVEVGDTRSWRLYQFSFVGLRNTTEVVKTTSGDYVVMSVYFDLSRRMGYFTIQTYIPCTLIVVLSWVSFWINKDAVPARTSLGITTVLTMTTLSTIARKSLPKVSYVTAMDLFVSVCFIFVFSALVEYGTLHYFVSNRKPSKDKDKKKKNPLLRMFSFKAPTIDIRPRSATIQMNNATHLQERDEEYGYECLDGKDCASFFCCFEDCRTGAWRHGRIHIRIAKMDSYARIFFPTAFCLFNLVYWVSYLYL
Assay: Binding activity on GABAA R: inhibition of [3H]Ro15-1788 binding, α5 containing receptor
Settings: ranges of the column heads; [3H]Ro15-1788, Ltk cell membranes
pKi: −log10 of the molar value.
Quantity kind: pKi

- COc1ccc2c(c1)-c1nn(C)cc1Cc1c(-c3noc(C4CC4)n3)ncn1-2: > 7.00
- CC(C)c1noc(-c2ncn3c2Cc2cn(Cc4ccccc4)nc2-c2cc(Cl)ccc2-3)n1: > 7.00
- Clc1ccc2c(c1)-c1nn(CC3CC3)cc1Cc1c(-c3ncco3)ncn1-2: > 7.00
- COc1ccc2c(c1)-c1nn(C)cc1Cc1c(-c3nc(C4CCOC4)co3)ncn1-2 (centres unmarked): < 6.00
- COc1ccc2c(c1)-c1nn(CC3COC3)cc1Cc1c(-c3nc(C4CC4)no3)ncn1-2: > 7.00

Reported pKi, molecule CC(C)c1noc(-c2ncn3c2Cc2cnoc2-c2cc(Cl)ccc2-3)n1 : ____ < 6.00

Also COc1ccc2c(c1)-c1c(cnn1C)Cc1c(-c3nc(C(C)(C)C)no3)ncn1-2 ? < 6.00

Also CC(C)c1noc(-c2ncn3c2Cc2cn(C)nc2-c2cc(Cl)ccc2-3)n1 ? > 7.00

Also COc1ccc2c(c1)-c1oncc1Cc1c(-c3nc(C(C)C)no3)ncn1-2 ? < 6.00

###

Consider the following compounds and their measured activation at 0.1 µM readings.
Target: GABAA R (α5β2γ2) (Homo sapiens, UniProt P18507+P31644)
Construct: expressed in transfected cells
Assay: Positive allosteric modulator activity: potentiation of EC20 GABA current in oocytes
Format: cell-based
Details: read-out: GABA α5 Functional Data: potentiation, @ 100 nM, EC20 GABA; ranges of the column heads

• CCn1cc2c(n1)-c1cc(Cl)ccc1-n1cnc(-c3nc(C)no3)c1C2 [Compound 159] = 20 to 50%
• COC1(c2nc(-c3ncn4c3Cc3cn(C)nc3-c3cc(Cl)ccc3-4)no2)CC1 [Compound 216] = 5 to 20%
• COc1ccc2c(c1)-c1nn(C)cc1Cc1c(-c3noc(C4CCOC4)n3)ncn1-2 (centres unmarked) [Compound 136] = 20 to 50%
• COc1ccc2c(c1)-c1[nH]ncc1Cc1c(-c3nc(C4CCOC4)no3)ncn1-2 (centres unmarked) [Compound 100] = 5 to 20%
• COc1ccc2c(c1)-c1[nH]ncc1Cc1c(-c3noc(COCC(F)(F)F)n3)ncn1-2 [Compound 174] = 20 to 50%
• COc1ccc2c(c1)-c1nn(CC3CCCO3)cc1Cc1c(-c3noc(COCC(F)(F)F)n3)ncn1-2 (centres unmarked) [Compound 292] = 5 to 20%
• Cn1cc2c(n1)-c1cc(Cl)ccc1-n1cnc(-c3noc(C4CCOC4)n3)c1C2 (centres unmarked) [Compound 145] = 5 to 20%
• COc1ccc2c(c1)-c1nn(C)cc1Cc1c(-c3noc([C@H]4CCOC4)n3)ncn1-2 [Compound 257] = 20 to 50%
• Clc1ccc2c(c1)-c1[nH]ncc1Cc1c(-c3nc(C4CCOC4)no3)ncn1-2 (centres unmarked) [Compound 108] = 20 to 50%
• Cn1cc2c(n1)-c1cc(Cl)ccc1-n1cnc(-c3noc(COCC(F)(F)F)n3)c1C2 [Compound 217] = 20 to 50%

Reported activation at 0.1 µM, compound COc1ccc2c(c1)-c1[nH]ncc1Cc1c(-c3nc(C(C)(C)C)no3)ncn1-2 [Compound 11] : ____ 5 to 20%

Also CCn1cc2c(n1)-c1cc(OC)ccc1-n1cnc(-c3nc(CN4CCCC4)no3)c1C2 [Compound 267] ? 5 to 20%

Also COc1ccc2c(c1)-c1nn(C)cc1Cc1c(-c3nc(C(C)(C)C)no3)ncn1-2 [Compound 118] ? 20 to 50%

Also COc1ccc2c(c1)-c1nn(CC3CCCO3)cc1Cc1c(-c3noc(C(F)(F)F)n3)ncn1-2 (centres unmarked) [Compound 295] ? 20 to 50%

Also COc1ccc2c(c1)-c1nn(Cc3ccccc3F)cc1Cc1c(-c3nc(C)no3)ncn1-2 [Compound 21] ? 5 to 20%

Also FC(F)(F)c1noc(-c2ncn3c2Cc2cn(C4CCOC4)nc2-c2cc(Cl)ccc2-3)n1 (centres unmarked) [Compound 228] ? 5 to 20%

Also CCn1cc2c(n1)-c1cc(Cl)ccc1-n1cnc(C3=N[C@H](c4ccccc4)CO3)c1C2 [Compound 178] ? 20 to 50%

###

Molecular target: α5β3γ2 GABAA R (Homo sapiens, UniProt P18507+P31644)
Experiment: Binding activity on GABAA R: inhibition of [3H]Ro15-1788 binding, α5 containing receptor
pKi: −log10 of the molar value.
Consider the following compounds and their measured pKi readings.

Reported pKi, compound Clc1ccc2c(c1)-c1nn(Cc3ccccn3)cc1Cc1c(-c3nc(C4CC4)no3)ncn1-2 : ____ > 7.00

Also CC(C)c1noc(-c2ncn3c2Cc2cn[nH]c2-c2cc(Cl)ccc2-3)n1 ? > 7.00

Also COc1ccc(Cn2ncc3c2-c2cc(OC)ccc2-n2cnc(C#Cc4ccc(OC)nc4)c2C3)cc1 ? 6.00 to 7.00

Also COc1ccc2c(c1)-c1nn(C)cc1Cc1c(-c3noc([C@H]4CCCO4)n3)ncn1-2 ? > 7.00

Also COCC(C)(C)c1nc(-c2ncn3c2Cc2cn(C)nc2-c2cc(OC)ccc2-3)no1 ? > 7.00

Also Cn1ncc2c1-c1cc(Cl)ccc1-n1cnc(-c3cnn(Cc4ccccc4)c3)c1C2 ? > 7.00

Also CC(C)OCc1noc(-c2ncn3c2Cc2cn(C)nc2-c2cc(Cl)ccc2-3)n1 ? > 7.00

Also CN(C)Cc1noc(-c2ncn3c2Cc2cn(C)nc2-c2cc(Cl)ccc2-3)n1 ? > 7.00

###

Target: GABAA R (α5β2γ2) (Homo sapiens, UniProt P18507+P31644)
Construct: expressed in transfected cells
Test: Positive allosteric modulator activity: potentiation of EC20 GABA current in oocytes
Assay type: cell-based
Settings: read-out: GABA α5 Functional Data: potentiation, @ 100 nM, EC20 GABA; ranges of the column heads
Quantity kind: activation at 0.1 µM

Reported activation at 0.1 µM, compound Cn1cc2c(n1)-c1cc(Cl)ccc1-n1cnc(-c3noc(C4COCCO4)n3)c1C2 (stereo not drawn) : ____ > 50%

The values you see were collected from patent US20240132513A1.
